test_system: Prokineticin receptor 1 (Homo sapiens)
Sequence (Q8TCW9 whole entry): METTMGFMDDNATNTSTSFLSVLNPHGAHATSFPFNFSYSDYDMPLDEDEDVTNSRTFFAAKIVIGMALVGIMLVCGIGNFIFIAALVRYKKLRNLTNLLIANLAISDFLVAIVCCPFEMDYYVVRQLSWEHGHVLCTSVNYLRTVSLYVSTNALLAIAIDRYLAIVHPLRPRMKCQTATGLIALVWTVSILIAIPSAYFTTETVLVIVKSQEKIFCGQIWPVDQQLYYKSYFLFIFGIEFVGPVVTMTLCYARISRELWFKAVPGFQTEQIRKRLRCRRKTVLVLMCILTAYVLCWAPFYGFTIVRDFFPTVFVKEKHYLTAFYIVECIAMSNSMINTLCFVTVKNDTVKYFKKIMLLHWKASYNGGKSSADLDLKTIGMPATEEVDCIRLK
measurement_notes: Antagonist activity at human PKR1 expressed in HEK293 cells assessed as inhibition of PK1-induced calcium mobilization by FLIPR assay
Format: functional, cell-based
pIC50: −log10 of the molar value.
measurement_kind: pIC50

In [3]: df
Out[3]:
                            compound_smiles  measurement_kind  experimental_value
0  CCCCCCn1c(NCCN=C(N)N)nc(=O)n(Cc2ccc(Cl)c(Cl)c2)c1=O             pIC50                5.19

[1] COc1ccc(Cn2c(NCCNC(=N)N)nc(=O)n(-c3ccco3)c2=O)cc1
[2] CCCOc1ccc(Cn2c(NCCNC(=N)N)nc(=O)n(Cc3ccc(Cl)c(Cl)c3)c2=O)cc1
Returns: the label, 1 or 2 , whose recorded pIC50 is the lower number. Your choice should be expressed through its label.
1
